Target: Aspartate--tRNA(Asp/Asn) ligase (Mycobacterium tuberculosis (strain ATCC 25618 / H37Rv)); also: in the data most compounds retested in dose-response had high values
Sequence (whole entry): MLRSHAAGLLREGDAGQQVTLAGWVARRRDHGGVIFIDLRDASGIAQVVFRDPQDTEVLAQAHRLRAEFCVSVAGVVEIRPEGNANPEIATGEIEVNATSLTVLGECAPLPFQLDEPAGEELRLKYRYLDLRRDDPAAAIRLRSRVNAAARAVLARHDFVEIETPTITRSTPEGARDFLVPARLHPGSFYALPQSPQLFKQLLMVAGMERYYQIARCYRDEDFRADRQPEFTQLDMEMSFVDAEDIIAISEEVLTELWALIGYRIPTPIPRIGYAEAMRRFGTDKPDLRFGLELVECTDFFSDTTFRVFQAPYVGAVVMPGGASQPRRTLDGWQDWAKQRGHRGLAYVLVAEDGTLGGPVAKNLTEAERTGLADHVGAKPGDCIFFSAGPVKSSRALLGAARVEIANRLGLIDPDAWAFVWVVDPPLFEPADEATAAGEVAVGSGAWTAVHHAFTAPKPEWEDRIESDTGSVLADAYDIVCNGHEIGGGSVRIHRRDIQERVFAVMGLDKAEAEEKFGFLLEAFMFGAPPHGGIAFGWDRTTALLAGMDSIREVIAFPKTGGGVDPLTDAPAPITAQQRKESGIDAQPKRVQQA
Experiment: Assay for Asp RNA synthetase-1 from Mycobacterium tuberculosis
Type: functional
Design: scale not given: direction of the effect not stated beside the values
Settings: 30 µM
# Percent Effect annotations
Quantity kind: Percent Effect (%)

INSERT INTO results (compound, quantity_kind, result) VALUES
  ('N#Cc1ccccc1CN1C[C@@H]2CC[C@H](C1)N(CC1CC1)C2=O', 'Percent Effect', 2.11),
  ('COc1cccc(CNC(=O)CN2CCCCC2Cn2cccn2)c1 (stereo unspecified)', 'Percent Effect', 0.922),
  ('CC(C)N1CCO[C@H]2CN(C(=O)c3ccoc3)C[C@H]21', 'Percent Effect', 8.86),
  ('Cc1ccc(S(=O)(=O)Nc2ccc(-n3cccc3C(=O)O)c(C)c2)s1', 'Percent Effect', 4.34),
  ('COCC(=O)N1C[C@@H]2OCCN(Cc3c(C)noc3C)[C@@H]2C1', 'Percent Effect', -3.8),
  ('CC(C)(O)C1CCN(C(=O)Nc2nc(-c3ccccc3)ns2)CC1', 'Percent Effect', 1.51);

###

Molecular target: Shiga toxin 2 (Escherichia coli O157:H7) (UniProt P09385+P09386)
Experiment: E. coli 0.157:H7 Shiga Toxin SOP - stx2 screening assay
Format: functional
Parameters: scale not given: direction of the effect not stated beside the values
Conditions: 30 µM
# Percent Effect annotations
Quantity kind: Percent Effect (%)

INSERT INTO assay_data (molecule, target_of_assay, result) VALUES
  ('O=C(C1CC1)N1CC[C@H](O)[C@@H]1Cc1ccccc1', 'Shiga toxin 2 (Escherichia coli O157:H7) (UniProt P09385+P09386)', 1.84),
  ('Cc1csc2nc3n(c(=O)c12)CCN(C(=O)c1ccncc1)CC3', 'Shiga toxin 2 (Escherichia coli O157:H7) (UniProt P09385+P09386)', 3.14),
  ('COC1CCN(C(=O)CCc2c(C)nc3ccnn3c2C)CC1', 'Shiga toxin 2 (Escherichia coli O157:H7) (UniProt P09385+P09386)', 21),
  ('CCOC(=O)N1CCC(C(=O)c2cc(F)ccc2F)CC1', 'Shiga toxin 2 (Escherichia coli O157:H7) (UniProt P09385+P09386)', 36.2),
  ('CC1CCCCN1Cc1ccc(-c2ccccc2C(=O)O)cc1 (stereo unspecified)', 'Shiga toxin 2 (Escherichia coli O157:H7) (UniProt P09385+P09386)', 25),
  ('Cc1cnn(CCNCc2ccccc2OCc2cccnc2)c1', 'Shiga toxin 2 (Escherichia coli O157:H7) (UniProt P09385+P09386)', -8.49);
